# log10(Ki) per entry
subject_of_test: σ1 receptors (Cavia porcellus, UniProt Q60492)
Construct: Crude P2 membranes were prepared from guinea pig brain, rat brain, or rat liver; from tissue; host or cells: guinea pig brain (crude P2 membranes)
Sequence (Q60492 whole entry): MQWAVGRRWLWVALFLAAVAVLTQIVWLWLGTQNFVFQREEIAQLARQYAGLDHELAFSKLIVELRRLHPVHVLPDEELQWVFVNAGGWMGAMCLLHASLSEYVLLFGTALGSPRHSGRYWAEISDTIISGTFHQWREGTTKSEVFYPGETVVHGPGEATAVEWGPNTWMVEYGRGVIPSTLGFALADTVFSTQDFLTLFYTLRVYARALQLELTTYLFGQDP
assay_protocol: σ1 receptor competition binding
Design: species or system guinea pig
condition_context: Table 1; [3H](+)-pentazocine, guinea pig brain; mean±SEM, minimum of two independent assays; read-out: σ1
measured_quantity: log10(Ki) (log10 of the value in nM)

[[record]]
chem_smiles = "CN(CCc1ccccc1N)CCN1CCCC1"
value_observed = 2.46

[[record]]
chem_smiles = "CN(CCc1ccc([N+](=O)[O-])cc1)CCN1CCCC1"
value_observed = 0.60

[[record]]
chem_smiles = "NCCN1CCN(CCCc2ccccc2)CC1"
value_observed = 0.48

[[record]]
chem_smiles = "COc1ccccc1CC(=O)N1CCN(CCCc2ccccc2)CC1"
value_observed = 1.75

[[record]]
chem_smiles = "CN(CCc1cccc(N)c1)CCN1CCCC1"
value_observed = 2.76

[[record]]
chem_smiles = "COc1ccc(CC(=O)N2CCN(CCCc3ccccc3)CC2)cc1"
value_observed = 1.11

[[record]]
chem_smiles = "CN(CCc1cccc([N+](=O)[O-])c1)CCN1CCCC1"
value_observed = 0.78

[[record]]
chem_smiles = "COc1ccc(CCN2CCN(CCCc3ccccc3)CC2)cc1"
value_observed = 0.00

[[record]]
chem_smiles = "COc1ccc(CC(=O)N(C)CCN2CCCC2)cc1"
value_observed = 3.35

[[record]]
chem_smiles = "Clc1ccc(CCN2CCN(CCCc3ccccc3)CC2)cc1Cl"
value_observed = 0.30

[[record]]
chem_smiles = "CN(CCc1ccc(N)cc1)CCN1CCCC1"
value_observed = 2.44

[[record]]
chem_smiles = "COc1cccc(CC(=O)N(C)CCN2CCCC2)c1"
value_observed = 3.49

[[record]]
chem_smiles = "O=C(Cc1ccc([N+](=O)[O-])cc1)N1CCN(CCCc2ccccc2)CC1"
value_observed = 1.15

[[record]]
chem_smiles = "CN(CCc1ccccc1[N+](=O)[O-])CCN1CCCC1"
value_observed = 0.90

[[record]]
chem_smiles = "Nc1ccccc1CCN1CCN(CCCc2ccccc2)CC1"
value_observed = 0.70

